tested on: CCRF-CEM leukemia; assay: NCI tumour cell line growth inhibition, 48 h
Parameter threshold = 9 µM. Response is Yes when TGI meets or exceeds it, else No.

>  <compound>
COC1(OC)CCCc2c1no[n+]2[O-]

>  <target-or-system>
CCRF-CEM leukemia

>  <label-value>
Yes

$$$$
>  <compound>
Cc1cc(N(CCCNc2ccnc3cc(Cl)ccc23)Cc2ccc3c(c2)OCO3)nc(N2CCOCC2)n1

>  <target-or-system>
CCRF-CEM leukemia

>  <label-value>
Yes

$$$$
>  <compound>
Oc1ccc(Nc2c3ccccc3nc3occ(Cl)c23)cc1

>  <target-or-system>
CCRF-CEM leukemia

>  <label-value>
No

$$$$
>  <compound>
CC1(C)N=C(N)N=C(N)N1c1ccc(CCCCc2ccc(Cl)c(S(=O)(=O)F)c2)c(Cl)c1

>  <target-or-system>
CCRF-CEM leukemia

>  <label-value>
No

$$$$
>  <compound>
COC(=O)C1=CN(CC2=CC(=O)C(C)=CC2=O)C=C(C(=O)OC)C1c1cccc(OC)c1

>  <target-or-system>
CCRF-CEM leukemia

>  <label-value>
Yes

$$$$
>  <compound>
Cn1cc(-c2csc(-c3c[nH]c4ccc(Br)cc34)n2)c2cnccc21

>  <target-or-system>
CCRF-CEM leukemia

>  <label-value>
No

$$$$
>  <compound>
CC(C)=CCC/C(C)=C/CC/C(C)=C/CC(CO)N(C)CC/C=C(\C)CCC=C(C)C (stereo not given)

>  <target-or-system>
CCRF-CEM leukemia

>  <label-value>
Yes

$$$$
>  <compound>
O=C1NC(N/N=C\C(O)C(O)C(O)C(O)CO)=N/C1=C/c1ccc(Cl)cc1 (stereo not given)

>  <target-or-system>
CCRF-CEM leukemia

>  <label-value>
Yes

$$$$
>  <compound>
COc1cc2c3c(c1OC)-c1cc4c(cc1CC3(C#N)N(C(=O)c1ccccc1)CC2)OCO4 (stereo not given)

>  <target-or-system>
CCRF-CEM leukemia

>  <label-value>
Yes

$$$$
>  <compound>
CC1CCN(C(=O)OCc2nc3nc(Cl)nc(N4CCOCC4)c3[nH]2)CC1

>  <target-or-system>
CCRF-CEM leukemia

>  <label-value>
No

$$$$
>  <compound>
C=C(Nc1nc2ccc(C)cc2s1)C(=O)C(CC)C(=O)C(CC)CC1C(=O)NC(=O)NC1=O (stereo not given)

>  <target-or-system>
CCRF-CEM leukemia

>  <label-value>
Yes

$$$$
>  <compound>
CCOC(=O)c1ccc(N=Nc2cc(C(=O)OCC)ccc2O)cc1

>  <target-or-system>
CCRF-CEM leukemia

>  <label-value>
Yes

$$$$
>  <compound>
C=C1C(=O)OC2CC(C)C(C(O)CC(C)O)=CCC12 (stereo not given)

>  <target-or-system>
CCRF-CEM leukemia

>  <label-value>
Yes

$$$$
>  <compound>
C(=C\c1ccc(-c2cn3cc(/C=C/C=N/NC4=NCCN4)ccc3n2)cc1)/C=N/NC1=NCCN1

>  <target-or-system>
CCRF-CEM leukemia

>  <label-value>
No

$$$$
>  <compound>
CCOC(=O)[C@H](C)OC(=O)[C@@](C)(NC(=O)c1ccccc1C(=O)OC)[C@@H]1NC=C(C(=O)OC)CS1

>  <target-or-system>
CCRF-CEM leukemia

>  <label-value>
Yes

$$$$
>  <compound>
O=C(Nc1ccc(Cl)c(C(F)(F)F)c1)c1ccc(NC2=C(Cl)C(=O)N(Cc3ccccc3)C2=O)cc1

>  <target-or-system>
CCRF-CEM leukemia

>  <label-value>
No

$$$$
>  <compound>
FC(F)(F)c1ccc2c(c1)nc(-c1ccc(Cl)cc1)n2CC1CCCN2CCCCC12 (stereo not given)

>  <target-or-system>
CCRF-CEM leukemia

>  <label-value>
Yes

$$$$
>  <compound>
CCN(CC)CCSc1c2ccccc2nc2c(OC)ccc(OC)c12

>  <target-or-system>
CCRF-CEM leukemia

>  <label-value>
Yes

$$$$
>  <compound>
C=CN1C(=O)[C@H](Oc2ccccc2)[C@@H]1c1ccccc1

>  <target-or-system>
CCRF-CEM leukemia

>  <label-value>
Yes

$$$$

---

tested on: SNB-75 CNS; assay: NCI tumour cell line growth inhibition, 48 h
Parameter threshold = 10 µM. Response is yes (1) when TGI meets or exceeds it, else no (0).

>  <compound>
Cc1ccc(Nc2oc(-c3ccccc3)nc2[P+](c2ccccc2)(c2ccccc2)c2ccccc2)cc1

>  <label-value>
no (0)

$$$$
>  <compound>
CC(=O)NC1=N/C(=C\c2ccc(Cl)cc2)C(=O)N1/C=C1\C(=O)Oc2ccccc2C1=O

>  <label-value>
yes (1)

$$$$
>  <compound>
Cc1nn(C(=O)CC(=O)Nc2ccc(Cl)cc2)c(C)c1N=Nc1ccccc1C(=O)O

>  <label-value>
yes (1)

$$$$
>  <compound>
CC1(C)CC(=O)CC(=Nc2ccc([N+](=O)[O-])cc2)C1

>  <label-value>
yes (1)

$$$$
>  <compound>
CC(=O)N(C)CCc1c[nH]c2ccccc12

>  <label-value>
yes (1)

$$$$
>  <compound>
Cc1ccc(Cl)c2c(=O)c3ccc(N)cc3sc12

>  <label-value>
yes (1)

$$$$
>  <compound>
Cn1c(Nc2ccc(C(F)(F)F)cc2)nc2cc(Oc3ccnc(-c4ncc(C(F)(F)F)[nH]4)c3)ccc21

>  <label-value>
yes (1)

$$$$
>  <compound>
COc1cccc2nc3c(C(=O)NCCN(C)C)cccc3cc12

>  <label-value>
yes (1)

$$$$
>  <compound>
NCCCn1c2c(c3ccc([N+](=O)[O-])cc3c1=O)C(=O)c1ccccc1-2

>  <label-value>
no (0)

$$$$
>  <compound>
COc1cc(/C=C/C(=O)Oc2ccc(NC(C)=O)cc2)ccc1C(=O)O/C=C/c1ccccc1

>  <label-value>
yes (1)

$$$$
>  <compound>
COC(C)(C)OCCN1CCN(CCN2C3=C(C=C(C(C)=O)C3)Sc3ccccc32)CC1

>  <label-value>
yes (1)

$$$$
>  <compound>
COc1ccc(-c2nnc(N3CCN(C(=O)CN4CCN(c5ccccc5)CC4)CC3)nc2-c2ccc(OC)cc2)cc1

>  <label-value>
yes (1)

$$$$
>  <compound>
CC(=O)OCC1OC(n2c(C)cc(C)c(C#N)c2=S)C(OC(C)=O)C(OC(C)=O)C1OC(C)=O (stereo not given)

>  <label-value>
yes (1)

$$$$
>  <compound>
CCCCCCCN=C(N)c1ccc(N2CCN(c3ccc(C(N)=NCCCCCCC)cc3)CC2)cc1

>  <label-value>
no (0)

$$$$
>  <compound>
O=[N+]([O-])c1ccc(-c2cnc3ccccn23)cc1

>  <label-value>
yes (1)

$$$$
>  <compound>
O=C(Nc1cc(C(F)(F)F)ccc1Cl)c1cccc(NC2=C(Cl)C(=O)N(Cc3ccccc3)C2=O)c1

>  <label-value>
yes (1)

$$$$
>  <compound>
C[C@H]1C(=O)O[C@@H]2CCN3CC=C(COC(=O)[C@](C)(O)[C@@]1(C)O)[C@H]23

>  <label-value>
yes (1)

$$$$
>  <compound>
O=c1nc(N2CCNCC2)oc2cc(Cl)oc(=O)c12

>  <label-value>
yes (1)

$$$$
>  <compound>
N#Cc1c(-c2ccc(Cl)cc2)c(C#N)c(=O)n(NS(=O)(=O)c2ccccc2)c1O

>  <label-value>
yes (1)

$$$$
>  <compound>
CC1(C)OC[C@@H]([C@H](O)C2C=CC(=O)S2)O1 (stereo not given in full)

>  <label-value>
yes (1)

$$$$

---

Entries and their TGI values follow.
tested on: HT29 colon; experiment: NCI tumour cell line growth inhibition, 48 h

>  <compound>
CN(C)c1ccc(N=Nc2ccccn2)c(O)c1

>  <TGI>
> 100 µM

$$$$
>  <compound>
CCOC(=O)C(CCN1CCC2(CC1)C(=O)N(C)CN2c1ccccc1)C(=O)OCC

>  <TGI>
> 100 µM

$$$$
>  <compound>
c1ccc2c(c1)SCCC2NC1=NCCO1 (stereo unspecified)

>  <TGI>
> 100 µM

$$$$
>  <compound>
[N-]=[N+]=CC(=O)OC1Cc2ccccc2C1

>  <TGI>
> 100 µM

$$$$
>  <compound>
CN(C)CCCn1cnc2cc(Cl)c(Cl)cc21

>  <TGI>
> 100 µM

$$$$
>  <compound>
O=P1(c2ccccc2)Nc2ccccc2SSc2ccccc2N1

>  <TGI>
37.1 µM

$$$$
>  <compound>
CCSC1=N/C(=C\c2ccc(N(C)C)cc2)C(Cl)=N1

>  <TGI>
> 100 µM

$$$$
>  <compound>
O=S(=O)(c1ccccc1)N1N=C2c3ccccc3CCC[C@H]2C1c1ccccc1 (stereo partly specified)

>  <TGI>
> 100 µM

$$$$
>  <compound>
O=C(Nc1ccc([N+](=O)[O-])cc1[N+](=O)[O-])C(=O)C(C(=O)c1ccc2ccccc2c1)C1OC(=O)c2ccccc21 (stereo unspecified)

>  <TGI>
36.4 µM

$$$$
>  <compound>
CC(=O)O[C@H]1CC[C@@]2(C)C(=CC[C@H]3[C@@H]4C/C(=C\c5ccc(N(C)C)cc5)[C@H](OC(C)=O)[C@@]4(C)CC[C@@H]32)C1

>  <TGI>
34.2 µM

$$$$
>  <compound>
CCCC(=O)N1CCN(c2ccc3c(c2)OC(C)O3)CC1 (stereo unspecified)

>  <TGI>
> 100 µM

$$$$
>  <compound>
Cc1ncc([N+](=O)[O-])n1CCNCCCCn1ccnc1[N+](=O)[O-]

>  <TGI>
> 100 µM

$$$$
>  <compound>
C=CCN(C(=O)CNC(=O)C(F)(F)F)c1cc(OCc2ccccc2)c2c(c1)c(C)cn2S(=O)(=O)c1ccccc1

>  <TGI>
> 100 µM

$$$$
>  <compound>
CC(=O)OCC1OC(OC2CC3C(C)(C)C(O)CC[C@]3(C)C3CCC45CC4(CCC5[C@@H](C)CC(O)C(O)C(C)(C)O)[C@]23C)C(O)C(O)C1O (stereo partly specified)

>  <TGI>
> 10 µM

$$$$
>  <compound>
O=C(NNC(=O)c1ccccc1O)c1cccc(Br)c1

>  <TGI>
> 100 µM

$$$$
>  <compound>
O=[N+]([O-])c1cccc2ccc(N/N=C/c3ccccc3O)nc12

>  <TGI>
> 100 µM

$$$$
>  <compound>
CN(C)/N=C1/CCC(C(F)(F)F)(C(F)(F)F)O1

>  <TGI>
> 100 µM

$$$$
>  <compound>
COc1cc(/C=C\c2cc(OC)c(OC)c(OC)c2)cc(N/C=C\C(=O)c2cc(OC)c(OC)c(OC)c2)c1OC

>  <TGI>
14.8 µM

$$$$
>  <compound>
CCOC(=O)C1SC(=Nc2ccccc2)N=C1C (stereo unspecified)

>  <TGI>
> 100 µM

$$$$
>  <compound>
Cn1cnnc1Sc1c([N+](=O)[O-])ncn1C

>  <TGI>
> 100 µM

$$$$
>  <compound>
Cn1c(=O)c(Oc2ccc(F)cc2)cc2cnc(NC3CCOCC3)nc21

>  <TGI>
> 25 µM

$$$$
>  <compound>
COc1cc(/C=C/C(=O)c2cccc(-n3cc(-c4ccc(Cl)cc4)[nH]c3=O)c2)ccc1O

>  <TGI>
> 100 µM

$$$$
>  <compound>
O=C1c2cccc3cccc(c23)C(=O)N1CCCCCN1CCN(CCCCCOc2ccc(-c3nc4ccc(N5CCOCC5)cc4[nH]3)cc2)CC1

>  <TGI>
23.8 µM

$$$$
>  <compound>
Oc1ccc2ccccc2c1N=Nc1ccc(Br)cc1

>  <TGI>
> 100 µM

$$$$
>  <compound>
CC1CN=C(N(C(=O)Nc2ccccc2)c2ccc(Cl)c(Cl)c2)S1 (stereo unspecified)

>  <TGI>
78 µM

$$$$
>  <compound>
O=c1oc2c/c(=C\c3ccc([N+](=O)[O-])cc3)c(=O)c3cccc1c3-2

>  <TGI>
> 100 µM

$$$$
>  <compound>
CC1(Br)Cc2ccccc2C1=O (stereo unspecified)

>  <TGI>
15.4 µM

$$$$
>  <compound>
CC(Oc1ccc(OCC2CCCCC2)cc1)C(=O)OCC(=O)c1ccc(-c2ccccc2)cc1 (stereo unspecified)

>  <TGI>
> 100 µM

$$$$
>  <compound>
CCc1nc(N)nc(N)c1-c1ccc([N+](C)(C)C)cc1

>  <TGI>
> 100 µM

$$$$
>  <compound>
COc1ccc(C(C#N)NNC(=O)Cc2ccccc2)cc1OC (stereo unspecified)

>  <TGI>
> 100 µM

$$$$
>  <compound>
Nc1c(C(=O)c2ccccc2)cnn1-c1ccc(F)cc1

>  <TGI>
> 25 µM

$$$$
>  <compound>
COc1ccc(-c2cc(/C=C/C(=O)c3ccc(OC)c(OC)c3)[nH]n2)cc1

>  <TGI>
3.45 µM

$$$$
>  <compound>
C=COC(=O)N[C@H]1CCc2cc(OC)c(OC)c(OC)c2-c2ccc(SC)c(=O)cc21

>  <TGI>
0.149 µM

$$$$
>  <compound>
CCN(CC)CCSc1c2ccccc2nc2c(OC)ccc(OC)c12

>  <TGI>
23.1 µM

$$$$
>  <compound>
N#Cc1c(-c2ccc(Cl)cc2)c(C#N)c(=O)n(NS(=O)(=O)c2ccccc2)c1O

>  <TGI>
> 100 µM

$$$$
>  <compound>
CCOC(=O)[C@H](C)OC(=O)[C@@](C)(NC(=O)c1ccccc1C(=O)OC)[C@@H]1NC=C(C(=O)OC)CS1

>  <TGI>
> 100 µM

$$$$
>  <compound>
COc1cc(/C=C/C(=O)Oc2ccc(NC(C)=O)cc2)ccc1C(=O)O/C=C/c1ccccc1

>  <TGI>
> 100 µM

$$$$
>  <compound>
CC(C)=CCc1cc2c(cc1O)OC[C@H]1c3cc4c(cc3O[C@@H]21)OCO4

>  <TGI>
> 100 µM

$$$$
>  <compound>
C[C@H]1C(=O)O[C@@H]2CCN3CC=C(COC(=O)[C@](C)(O)[C@@]1(C)O)[C@H]23

>  <TGI>
> 100 µM

$$$$
>  <compound>
COc1ccc(/C(Cl)=C(\C=O)c2ccc(OC)cc2)cc1

>  <TGI>
> 100 µM

$$$$
>  <compound>
CC1CCN(C(=O)OCc2nc3nc(Cl)nc(N4CCOCC4)c3[nH]2)CC1

>  <TGI>
6.38 µM

$$$$
